Run description: Plasma protein binding by ultrafiltration, monkey plasma
Format: in vitro ADME, cynomolgus monkey
Test conditions: cynomolgus monkey, plasma; 4 μg/mL TPB15, ultrafiltration, 37 °C 3 h
Protocol: To prepare plasma samples of TPB15 at final concentrations of 4, 8, and 16 μg/mL, 1 μL of TPB15 dissolved in dimethyl sulfoxide (DMSO) at low (400 μg/mL), medium (800 μg/mL), and high (1600 μg/mL) concentrations was added to 99 μL of blank plasma obtained from humans, rats, mice, monkeys, and dogs. […] After centrifugation, 10 μL of the ultrafiltrate was mixed with 990 μL of plasma, vortexed, and analyzed for concentration using the same LC-MS/MS method. […]
Measured endpoint: fraction unbound at 3 h, 4 μg/mL
Simply state the number, no unit and no words.

Quick check: fraction unbound at 3 h, 4 μg/mL of "O=C(Nc1ccc(Cl)c(-c2nnc3c(Cl)cccn23)c1)c1ccc(Cl)nc1Cl" ?
0.185

###

Run description: Metabolic stability in human liver microsomes (HLM)
Format: in vitro ADME
Test conditions: human, liver microsomes; HLM, 5 μM TPB15, 0.5 mg/mL microsomes; read-out: T1/2 (min), in vitro elimination half-life
Measured endpoint: half-life at 5 μM
Kindly report the value followed by its unit.

Quick check: half-life at 5 μM of O=C(Nc1ccc(Cl)c(-c2nnc3c(Cl)cccn23)c1)c1ccc(Cl)nc1Cl [TPB15] ?
103 min

###

Run description: Plasma protein binding by ultrafiltration, human plasma
Type: in vitro ADME
Test conditions: human, plasma; 16 μg/mL TPB15, ultrafiltration, 37 °C 3 h
Measured endpoint: fraction unbound at 3 h, 16 μg/mL
Simply state the number, no unit and no words.

Quick check: fraction unbound at 3 h, 16 μg/mL of O=C(Nc1ccc(Cl)c(-c2nnc3c(Cl)cccn23)c1)c1ccc(Cl)nc1Cl [TPB15] ?
0.179

###

Run description: Plasma protein binding by ultrafiltration, rat plasma
Format: in vitro ADME, SD rat
Test conditions: SD; rat plasma, 4 to 16 μg/mL; read-out: average plasma protein binding rates, range over concentrations
Measured endpoint: fraction unbound at 3 h

Quick check: fraction unbound at 3 h of "O=C(Nc1ccc(Cl)c(-c2nnc3c(Cl)cccn23)c1)c1ccc(Cl)nc1Cl" ?
0.176 to 0.191

###

Run description: Plasma protein binding by ultrafiltration, monkey plasma
Format: in vitro ADME, cynomolgus monkey
Test conditions: cynomolgus monkey, plasma; 8 μg/mL TPB15, ultrafiltration, 37 °C 3 h
Measured endpoint: fraction unbound at 3 h, 8 μg/mL
Simply state the number, no unit and no words.

Quick check: fraction unbound at 3 h, 8 μg/mL of "O=C(Nc1ccc(Cl)c(-c2nnc3c(Cl)cccn23)c1)c1ccc(Cl)nc1Cl" ?
0.188

###

Run description: Plasma protein binding by ultrafiltration, rat plasma
Assay type: in vitro ADME, SD rat
Test conditions: Sprague-Dawley, rat, plasma; 4 μg/mL TPB15, ultrafiltration, 37 °C 3 h; read-out: Plasma Protein Binding (%) SD Rat (converted)
Procedure: To prepare plasma samples of TPB15 at final concentrations of 4, 8, and 16 μg/mL, 1 μL of TPB15 dissolved in dimethyl sulfoxide (DMSO) at low (400 μg/mL), medium (800 μg/mL), and high (1600 μg/mL) concentrations was added to 99 μL of blank plasma obtained from humans, rats, mice, monkeys, and dogs. […] After centrifugation, 10 μL of the ultrafiltrate was mixed with 990 μL of plasma, vortexed, and analyzed for concentration using the same LC-MS/MS method. […]
Measured endpoint: fraction unbound at 3 h, 4 μg/mL

Quick check: fraction unbound at 3 h, 4 μg/mL of "O=C(Nc1ccc(Cl)c(-c2nnc3c(Cl)cccn23)c1)c1ccc(Cl)nc1Cl" ?
0.183

###

Run description: Metabolic stability in dog liver microsomes (DLM)
Type: in vitro ADME, beagle dog
Test conditions: beagle, dog, liver microsomes; DLM, 5 μM TPB15, 0.5 mg/mL microsomes; read-out: T1/2 (min), in vitro elimination half-life
Measured endpoint: half-life at 5 μM (min)
Only the number, expressed in min, is required.

Quick check: half-life at 5 μM of "O=C(Nc1ccc(Cl)c(-c2nnc3c(Cl)cccn23)c1)c1ccc(Cl)nc1Cl" ?
630

###

Run description: Plasma protein binding, overall across the five species
Type: in vitro ADME, mice, rats, dogs, monkeys, humans
Test conditions: mouse, rat, dog, monkey, human, all species tested, low, medium and high concentrations (4 to 16 μg/mL), read-out: plasma protein binding rate, overall
Measured endpoint: fraction unbound at 3 h

Quick check: fraction unbound at 3 h of O=C(Nc1ccc(Cl)c(-c2nnc3c(Cl)cccn23)c1)c1ccc(Cl)nc1Cl [TPB15] ?
0.176 to 0.185

###

Run description: Plasma protein binding by ultrafiltration, dog plasma
Assay type: in vitro ADME
Test conditions: beagle, dog, plasma; 16 μg/mL TPB15, ultrafiltration, 37 °C 3 h
Protocol: To prepare plasma samples of TPB15 at final concentrations of 4, 8, and 16 μg/mL, 1 μL of TPB15 dissolved in dimethyl sulfoxide (DMSO) at low (400 μg/mL), medium (800 μg/mL), and high (1600 μg/mL) concentrations was added to 99 μL of blank plasma obtained from humans, rats, mice, monkeys, and dogs. […] After centrifugation, 10 μL of the ultrafiltrate was mixed with 990 μL of plasma, vortexed, and analyzed for concentration using the same LC-MS/MS method. […]
Measured endpoint: fraction unbound at 3 h, 16 μg/mL
Simply state the number, no unit and no words.

Quick check: fraction unbound at 3 h, 16 μg/mL of "O=C(Nc1ccc(Cl)c(-c2nnc3c(Cl)cccn23)c1)c1ccc(Cl)nc1Cl" ?
0.177

###

Run description: Plasma protein binding by ultrafiltration, mouse plasma
Type: in vitro ADME, KM mice
Test conditions: KM; mouse plasma, 4 to 16 μg/mL; read-out: average plasma protein binding rates, range over concentrations
Measured endpoint: fraction unbound at 3 h

Quick check: fraction unbound at 3 h of O=C(Nc1ccc(Cl)c(-c2nnc3c(Cl)cccn23)c1)c1ccc(Cl)nc1Cl [TPB15] ?
0.176 to 0.188

###

Run description: Plasma protein binding by ultrafiltration, dog plasma
Assay type: in vitro ADME
Test conditions: beagle, dog, plasma; 8 μg/mL TPB15, ultrafiltration, 37 °C 3 h
Measured endpoint: fraction unbound at 3 h, 8 μg/mL
Simply state the number, no unit and no words.

Quick check: fraction unbound at 3 h, 8 μg/mL of O=C(Nc1ccc(Cl)c(-c2nnc3c(Cl)cccn23)c1)c1ccc(Cl)nc1Cl [TPB15] ?
0.19

###

Run description: Plasma protein binding by ultrafiltration, monkey plasma
Assay type: in vitro ADME, cynomolgus monkey
Test conditions: monkey plasma, 4 to 16 μg/mL; read-out: average plasma protein binding rates, range over concentrations
Measured endpoint: fraction unbound at 3 h

Quick check: fraction unbound at 3 h of "O=C(Nc1ccc(Cl)c(-c2nnc3c(Cl)cccn23)c1)c1ccc(Cl)nc1Cl" ?
0.178 to 0.188
